Target: UniProt:P00918
Assay: Tested in vitro for activation of Human cloned isozyme carbonic anhydrase II (hCA II)
Where a SMILES comes first, the peptide text is derived from it. The star is where a group is joined. Boc = CC(C)(C)OC(=O)*
log10(KA) values for the compounds below.
Remember, log10 of KA, in µM.

Consider the worked cases shown below.
C[C@H](NC(=O)[C@H](CC(=O)O)NC(=O)OC(C)(C)C)C(=O)N[C@@H](CC(=O)O)C(=O)N[C@@H](CC(=O)O)C(=O)O (Boc-DADD-OH)	2.12
N[C@@H](CC(=O)O)C(=O)O	2.11
N[C@@H](CC(=O)O)C(=O)N[C@@H](CC(=O)O)C(=O)N[C@@H](CC(=O)O)C(=O)N[C@@H](CC(=O)O)C(=O)O (H-DDDD-OH)	-1.00
CC(C)(C)OC(=O)N[C@@H](CC(=O)O)C(=O)N[C@@H](CC(=O)O)C(=O)N[C@@H](CC(=O)O)C(=O)O (Boc-Asp-Asp-Asp-OH)	2.16
C[C@H](NC(=O)[C@@H](N)CC(=O)O)C(=O)N[C@@H](CC(=O)O)C(=O)O (H-Asp-Ala-Asp-OH)	1.00

Attention now turns to another entry.
### Prompt Please indicate recorded log10(KA) of N[C@@H](CC(=O)O)C(=O)N[C@@H](CC(=O)O)C(=O)O (H-Asp-Asp-OH) measured with UniProt:P00918.
### Response 1.32

* * *

Biological target: UniProtKB Q95323
Sequence (Q95323 whole entry): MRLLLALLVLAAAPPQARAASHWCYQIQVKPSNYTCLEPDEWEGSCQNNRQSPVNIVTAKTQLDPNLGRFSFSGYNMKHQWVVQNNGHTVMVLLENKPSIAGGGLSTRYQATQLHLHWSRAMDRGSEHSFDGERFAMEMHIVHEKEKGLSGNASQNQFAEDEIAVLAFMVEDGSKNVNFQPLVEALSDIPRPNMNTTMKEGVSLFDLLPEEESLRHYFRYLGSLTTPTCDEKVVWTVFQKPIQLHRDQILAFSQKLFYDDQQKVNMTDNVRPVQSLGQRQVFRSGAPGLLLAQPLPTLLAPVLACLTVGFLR
Experiment: Tested in vitro for activation of carbonic anhydrase IV (bCA IV), purified from bovine lung microsomes
Details: Microsome
Where a SMILES comes first, the peptide text is derived from it. The star is where a group is joined. Boc = CC(C)(C)OC(=O)*
# strict inequality: KA < 50 µM yields YES, everything else yields NO

The examples below pair each entry with its known result.
N[C@@H](CC(=O)O)C(=O)N[C@@H](CC(=O)O)C(=O)N[C@@H](CC(=O)O)C(=O)N[C@@H](CC(=O)O)C(=O)O (H-DDDD-OH)	YES
C[C@H](NC(=O)[C@@H](N)CC(=O)O)C(=O)N[C@@H](CC(=O)O)C(=O)N[C@@H](CC(=O)O)C(=O)O (H-DADD-OH)	YES
C[C@H](N)C(=O)N[C@@H](C)C(=O)O (H-Ala-Ala-OH)	NO
C[C@H](NC(=O)[C@@H](N)CC(=O)O)C(=O)O (H-Asp-Ala-OH)	NO
CC(C)(C)OC(=O)N[C@@H](CC(=O)O)C(=O)N[C@@H](CC(=O)O)C(=O)N[C@@H](CC(=O)O)C(=O)N[C@@H](CC(=O)O)C(=O)O (Boc-DDDD-OH)	NO

### Prompt Determine if C[C@H](NC(=O)[C@@H](N)CC(=O)O)C(=O)N[C@@H](CC(=O)O)C(=O)O (H-Asp-Ala-Asp-OH) shows KA strictly lower than 50 µM.
### Response YES

### Prompt Determine if CC(C)(C)OC(=O)N[C@@H](CC(=O)O)C(=O)N[C@@H](CC(=O)O)C(=O)O (Boc-Asp-Asp-OH) shows KA strictly lower than 50 µM.
### Response NO

### Prompt Determine if C[C@H](NC(=O)[C@H](CC(=O)O)NC(=O)OC(C)(C)C)C(=O)N[C@@H](CC(=O)O)C(=O)N[C@@H](CC(=O)O)C(=O)O (Boc-DADD-OH) shows KA strictly lower than 50 µM.
### Response NO

### Prompt Determine if `CC(C)(C)OC(=O)N[C@@H](CC(=O)O)C(=O)O` shows KA strictly lower than 50 µM.
### Response NO

### Prompt Determine if `N[C@@H](CC(=O)O)C(=O)O` shows KA strictly lower than 50 µM.
### Response NO

### Prompt Determine if N[C@@H](CC(=O)O)C(=O)N[C@@H](CC(=O)O)C(=O)N[C@@H](CC(=O)O)C(=O)O (H-Asp-Asp-Asp-OH) shows KA strictly lower than 50 µM.
### Response YES

* * *

Biological target: Carbonic anhydrase 1 (Homo sapiens)
Test: Tested in vitro for activation of Human cloned isozyme carbonic anhydrase I (hCA I)
Where a SMILES comes first, the peptide text is derived from it. The star is where a group is joined. Boc = CC(C)(C)OC(=O)*
Use yes when the recorded KA is no lower than 40 µM; use no when it is lower.

The examples below pair each entry with its known result.
C[C@H](NC(=O)[C@H](CC(=O)O)NC(=O)OC(C)(C)C)C(=O)N[C@@H](CC(=O)O)C(=O)N[C@@H](CC(=O)O)C(=O)O (Boc-DADD-OH)	yes
C[C@H](N)C(=O)O	yes
N[C@@H](CC(=O)O)C(=O)O	yes
CC(C)(C)OC(=O)N[C@@H](CC(=O)O)C(=O)N[C@@H](CC(=O)O)C(=O)O (Boc-Asp-Asp-OH)	yes
N[C@@H](CC(=O)O)C(=O)N[C@@H](CC(=O)O)C(=O)N[C@@H](CC(=O)O)C(=O)N[C@@H](CC(=O)O)C(=O)O (H-DDDD-OH)	no

### Prompt Decide: is the reported value of KA for CC(C)(C)OC(=O)N[C@@H](CC(=O)O)C(=O)N[C@@H](CC(=O)O)C(=O)N[C@@H](CC(=O)O)C(=O)N[C@@H](CC(=O)O)C(=O)O (Boc-DDDD-OH) equal to or greater than 40 µM?
### Response yes

### Prompt Decide: is the reported value of KA for C[C@H](NC(=O)[C@@H](N)CC(=O)O)C(=O)N[C@@H](CC(=O)O)C(=O)O (H-Asp-Ala-Asp-OH) equal to or greater than 40 µM?
### Response no

* * *

Biological target: Carbonic anhydrase 2 (Homo sapiens)
Assay: Tested in vitro for activation of Human cloned isozyme carbonic anhydrase II (hCA II)
Where a SMILES comes first, the peptide text is derived from it. The star is where a group is joined. Boc = CC(C)(C)OC(=O)*
KA values for the compounds below.
Please state the figure in µM; there is no need to write the unit.

C[C@H](NC(=O)[C@@H](N)CC(=O)O)C(=O)O (H-Asp-Ala-OH)	33
N[C@@H](CC(=O)O)C(=O)N[C@@H](CC(=O)O)C(=O)N[C@@H](CC(=O)O)C(=O)O (H-Asp-Asp-Asp-OH)	11
C[C@H](N)C(=O)O	150

### Prompt Assign KA to the following record: C[C@H](NC(=O)[C@@H](N)CC(=O)O)C(=O)N[C@@H](CC(=O)O)C(=O)N[C@@H](CC(=O)O)C(=O)O (H-DADD-OH)
### Response 0.2

### Prompt Assign KA to the following record: CC(C)(C)OC(=O)N[C@@H](CC(=O)O)C(=O)N[C@@H](CC(=O)O)C(=O)N[C@@H](CC(=O)O)C(=O)N[C@@H](CC(=O)O)C(=O)O (Boc-DDDD-OH)
### Response 124

### Prompt Assign KA to the following record: C[C@H](N)C(=O)N[C@@H](C)C(=O)O (H-Ala-Ala-OH)
### Response 110

* * *

Biological target: Carbonic anhydrase 4 (Bos taurus)
Assay: Tested in vitro for activation of carbonic anhydrase IV (bCA IV), purified from bovine lung microsomes
Conditions: Microsome
Where a SMILES comes first, the peptide text is derived from it. The star is where a group is joined. Boc = CC(C)(C)OC(=O)*
QUANTITY MEASURED: KA

Consider the worked cases shown below.
N[C@@H](CC(=O)O)C(=O)N[C@@H](CC(=O)O)C(=O)O (H-Asp-Asp-OH)	51 µM
CC(C)(C)OC(=O)N[C@@H](CC(=O)O)C(=O)N[C@@H](CC(=O)O)C(=O)N[C@@H](CC(=O)O)C(=O)O (Boc-Asp-Asp-Asp-OH)	> 200 µM

### Prompt Assign KA to the following record: CC(=O)N[C@@H](CC(=O)O)C(=O)N[C@@H](CC(=O)O)C(=O)O (Ac-Asp-Asp-OH)
### Response > 200 µM

### Prompt Assign KA to the following record: `C[C@H](N)C(=O)O`
### Response 66 µM

### Prompt Assign KA to the following record: CC(=O)N[C@@H](CC(=O)O)C(=O)N[C@@H](C)C(=O)O (Ac-Asp-Ala-OH)
### Response > 200 µM
